# target: 5-HT3A receptor F130A (Homo sapiens, UniProt P46098, F125A)
# procedure.text: FlexStation membrane potential dye functional assay, HEK293 cells
# run.conditions: inhibition of 5-HT (EC50 concentration) response, 45 min preincubation, 5-HT3A F130A
recorded.metric: IC50 (nM)
Please respond with the number in nM and leave the unit unwritten.

Lookup: Quick one: IC50 of O=C1c2cccc3c2[C@H](CCC3)CN1[C@@H]1CN2CCC1CC2 ?
Found: 4.4

====

# target: WT 5-HT3AB receptor (Homo sapiens, UniProt O95264+P46098)
# Sequence (P46098 24-478): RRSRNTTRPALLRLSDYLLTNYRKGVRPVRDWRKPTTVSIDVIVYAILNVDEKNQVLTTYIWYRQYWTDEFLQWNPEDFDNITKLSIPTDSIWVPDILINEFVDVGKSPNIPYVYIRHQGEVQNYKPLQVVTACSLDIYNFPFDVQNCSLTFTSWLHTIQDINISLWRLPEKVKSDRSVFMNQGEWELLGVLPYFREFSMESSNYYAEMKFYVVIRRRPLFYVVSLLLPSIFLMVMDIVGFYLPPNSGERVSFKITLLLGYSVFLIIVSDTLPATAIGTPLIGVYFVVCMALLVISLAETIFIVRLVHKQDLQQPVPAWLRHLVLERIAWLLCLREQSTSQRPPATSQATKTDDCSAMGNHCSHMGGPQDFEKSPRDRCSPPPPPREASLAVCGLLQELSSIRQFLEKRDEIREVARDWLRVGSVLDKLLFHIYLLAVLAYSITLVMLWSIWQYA
# Sequence (O95264 22-441): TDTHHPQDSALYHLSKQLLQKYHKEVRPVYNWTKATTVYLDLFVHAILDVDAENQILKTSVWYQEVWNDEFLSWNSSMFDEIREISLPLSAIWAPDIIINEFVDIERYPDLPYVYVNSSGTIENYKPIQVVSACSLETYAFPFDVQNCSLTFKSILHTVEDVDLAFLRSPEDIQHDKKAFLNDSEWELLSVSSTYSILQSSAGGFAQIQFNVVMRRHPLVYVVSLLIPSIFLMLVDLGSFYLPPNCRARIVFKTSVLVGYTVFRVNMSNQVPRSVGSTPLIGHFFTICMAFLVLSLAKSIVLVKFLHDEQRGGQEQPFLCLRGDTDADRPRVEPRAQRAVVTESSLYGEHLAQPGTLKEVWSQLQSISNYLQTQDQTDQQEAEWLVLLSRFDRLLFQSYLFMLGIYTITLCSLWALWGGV
# procedure.text: FlexStation membrane potential dye functional assay, HEK293 cells
# run.conditions: inhibition of 5-HT (EC50 concentration) response, 45 min preincubation
recorded.metric: pIC50
The scale used: pIC50 is minus the common logarithm of the concentration in molar units.

Lookup: // lookup pIC50 for O=C1c2cccc3c2[C@H](CCC3)CN1[C@@H]1CN2CCC1CC2
Found: 9.06
